Tested on: A498 renal
MEASUREMENT_DESCRIPTION: NCI tumour cell line growth inhibition, 48 h; in the data active means GI50 below about 0.43 µM; inactive means the rest
Possible outcomes: active, inactive

                                   compound  assay_target  category
0  O=C(NCC(=O)N1CC[C@H](NC2CCC(O)(c3ccc(-c4ncccn4)cn3)CC2)C1)c1cccc(C(F)(F)F)c1 (some centres undefined)    A498 renal  inactive
1  O=C1c2cccc3cccc(c23)C(=O)N1CCCCN1CCN(CCCCOc2ccc(-c3nc4ccc(N5CCOCC5)cc4[nH]3)cc2)CC1    A498 renal  inactive
2  COc1cc2c(cc1OCCCCCn1c(-c3ccco3)nc3ccccc31)N=C[C@@H]1CCCN1C2=O    A498 renal    active
3  COc1ccc(Cn2cnc3cc(C(=O)Nc4cccc5ccccc45)ccc32)c(OC)c1    A498 renal    active
4  CCCCCCCCCCCCCCCCOC(=O)c1c(C)[nH]c(/C=C2\N=C(c3ccc[nH]3)C=C2OC)c1C    A498 renal  inactive
5  COc1ccc(/C(=N\O)c2cc(OC)c(OC)c(OC)c2)c(OC)c1N    A498 renal  inactive
6  CCN(CC)CCCNc1nc2ccccc2c2c(=O)c3cc(Cl)ccc3sc12    A498 renal  inactive
7  Cn1ccnc1C(=O)/C=C/c1ccc(C(=O)Nc2ccccc2O)cc1    A498 renal  inactive
8      COc1ccc(N(C)c2nc(Cl)nc3ccn(C)c23)cc1    A498 renal    active
